target: Kappa-type opioid receptor (Homo sapiens, UniProt P41145); test: Agonist activity at human KOR expressed in CHO-K1 cells co-expressing G-alpha15 by calcium mobilization assay; type: functional, cell-based; details: cho-k1
Sequence (P41145 whole entry): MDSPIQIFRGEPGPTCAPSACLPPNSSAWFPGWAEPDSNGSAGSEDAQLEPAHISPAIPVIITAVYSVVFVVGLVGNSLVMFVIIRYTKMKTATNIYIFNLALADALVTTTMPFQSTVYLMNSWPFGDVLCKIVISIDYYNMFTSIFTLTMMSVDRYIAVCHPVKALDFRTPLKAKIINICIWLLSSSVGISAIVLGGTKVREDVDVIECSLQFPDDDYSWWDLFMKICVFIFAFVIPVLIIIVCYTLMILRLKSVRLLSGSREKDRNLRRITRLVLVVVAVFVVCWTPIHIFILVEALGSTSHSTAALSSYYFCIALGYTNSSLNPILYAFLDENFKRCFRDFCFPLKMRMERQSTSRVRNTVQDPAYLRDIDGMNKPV
Entries and their measured pEC50 follow.
Please report pEC50 as the negative decimal logarithm of the molar concentration, giving only the number.

Example entries and their recorded answers appear below.
INSERT INTO measurements (line_notation, endpoint_result) VALUES
  ('NC(=O)[C@@H]1CCCCN1C(=O)[C@H]1CC(=O)NCCCC[C@@H](NC(=O)[C@@H](N)Cc2ccc(O)cc2)C(=O)NCC(=O)N[C@@H](Cc2ccccc2)C(=O)N1', 6.67),
  ('Cc1cc(O)cc(C)c1C[C@H](N)C(=O)N[C@@H]1CCCCNC(=O)C[C@@H](C(=O)N2CCC[C@@H]2C(N)=O)NC(=O)[C@H](Cc2ccccc2)NC(=O)CNC1=O', 5.45),
  ('C[C@@H]1NC(=O)[C@H](NC(=O)[C@@H](N)Cc2ccc(O)cc2)CCCCNC(=O)C[C@H](C(=O)N2CCC[C@H]2C(N)=O)NC(=O)[C@H](Cc2ccccc2)NC1=O', 5.32),
  ('CC1(C)NC(=O)[C@H](NC(=O)[C@@H](N)Cc2ccc(O)cc2)CCCCNC(=O)C[C@@H](C(=O)N2CCC[C@@H]2C(N)=O)NC(=O)[C@H](Cc2ccccc2)NC1=O', 5.14),
  ('Cc1ccc(C[C@@H]2NC(=O)CNC(=O)[C@H](NC(=O)[C@@H](N)Cc3ccc(O)cc3)CCCCNC(=O)C[C@@H](C(=O)N3CCC[C@@H]3C(N)=O)NC2=O)cc1', 5.61);

Please examine the following record next.
Q: Query (compound): NC(=O)CNC(=O)[C@@H]1CC(=O)NCCCC[C@@H](NC(=O)[C@@H](N)Cc2ccc(O)cc2)C(=O)NCC(=O)N[C@@H](Cc2ccccc2)C(=O)N1 ; field requested: pEC50
Ans: 5.04

---

target: Delta-type opioid receptor (Homo sapiens); test: Agonist activity at human DOR expressed in CHO-K1 cells co-expressing G-alpha15 by calcium mobilization assay; format: functional, cell-based; details: cho-k1
Sequence (P41143 whole entry): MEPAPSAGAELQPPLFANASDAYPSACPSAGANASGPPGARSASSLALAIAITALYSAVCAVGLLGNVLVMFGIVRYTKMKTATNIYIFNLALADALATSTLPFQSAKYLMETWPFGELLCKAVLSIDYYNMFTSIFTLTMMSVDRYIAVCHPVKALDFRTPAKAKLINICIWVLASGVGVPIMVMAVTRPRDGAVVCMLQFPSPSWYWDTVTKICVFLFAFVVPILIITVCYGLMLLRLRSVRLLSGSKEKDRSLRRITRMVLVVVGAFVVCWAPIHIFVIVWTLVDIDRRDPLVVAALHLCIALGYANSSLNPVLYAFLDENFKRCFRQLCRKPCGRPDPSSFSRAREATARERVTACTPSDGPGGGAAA
The entries below come with measured EC50 values attached.
Write down the numeric answer in nM and omit the unit.

Known EC50 results, listed for orientation:
INSERT INTO results (line_notation, endpoint_result) VALUES
  ('NC(=O)[C@H]1CCCCN1C(=O)[C@H]1CC(=O)NCCCC[C@@H](NC(=O)[C@@H](N)Cc2ccc(O)cc2)C(=O)NCC(=O)N[C@@H](Cc2ccccc2)C(=O)N1', 0.2),
  ('NC(=O)[C@@H]1CCCCN1C(=O)[C@H]1CC(=O)NCCCC[C@@H](NC(=O)[C@@H](N)Cc2ccc(O)cc2)C(=O)NCC(=O)N[C@@H](Cc2ccccc2)C(=O)N1', 0.2);

# next compound below
Q: Which EC50 is reported for this compound? NC(=O)[C@H]1CCCN1C(=O)[C@@H]1CC(=O)NCCCC[C@@H](NC(=O)[C@@H](N)Cc2ccc(O)cc2)C(=O)NCC(=O)N[C@@H](CC2CCCCC2)C(=O)N1
Ans: 804

---

biological target: Kappa-type opioid receptor (Homo sapiens); test: Agonist activity at human KOR expressed in CHO-K1 cells co-expressing G-alpha15 by calcium mobilization assay relative to control; assay type: functional, cell-based; settings: filed as agonist
measurement_type: Emax (%)
Your answer should be a plain number; it is taken to be in %.

The following compounds have reported results that may help.
INSERT INTO measurements (line_notation, measurement_type, endpoint_result) VALUES
  ('Cc1ccc(C[C@@H]2NC(=O)CNC(=O)[C@H](NC(=O)[C@@H](N)Cc3ccc(O)cc3)CCCCNC(=O)C[C@H](C(=O)N3CCC[C@H]3C(N)=O)NC2=O)cc1', 'Emax', 66.7),
  ('CN1C(=O)CNC(=O)[C@H](NC(=O)[C@@H](N)Cc2ccc(O)cc2)CCCCNC(=O)C[C@H](C(=O)N2CCC[C@H]2C(N)=O)NC(=O)[C@@H]1Cc1ccccc1', 'Emax', 93.7),
  ('C[C@@H]1NC(=O)[C@H](NC(=O)[C@@H](N)Cc2ccc(O)cc2)CCCCNC(=O)C[C@H](C(=O)N2CCC[C@H]2C(N)=O)NC(=O)[C@H](Cc2ccccc2)NC1=O', 'Emax', 51.4);

# input for lookup
Q: Bench note: what Emax did NC(=O)[C@H]1CC(=O)NCCCC[C@@H](NC(=O)[C@@H](N)Cc2ccc(O)cc2)C(=O)NCC(=O)N[C@@H](Cc2ccccc2)C(=O)N1 show?
Ans: 85.5
